Tested on: human TLR8 (Homo sapiens)
Measurement description: TLR8 inhibition reporter assay (HEK-Blue, SEAP)
Settings: HEK-Blue cells overexpressing human TLR8, R848 15.9 μM, 22 hour incubation
Text: TLR7/8/9 Inhibition Reporter Assays HEK-Blue™-cells (Invivogen) overexpressing human TLR7, TLR8 or TLR9 receptors were used for screening inhibitors of these receptors using an inducible SEAP (secreted embryonic alkaline phosphatase) reporter gene under the control of the IFN-β minimal promoter fused to five NF-κB and AP-1-binding sites. […]
pIC50: −log10 of the molar value.
// label = Yes if pIC50 is not less than 8, otherwise No

>>> category_label("Cc1nnc2ccc(-c3[nH]c4ccc(C5CCN(Cc6ncn(C)n6)CC5)cc4c3C(C)C)cn12")
"No"
>>> category_label("Cc1c(-c2[nH]c3ccc(C4CC(C)N(CC5(C)COC5)C(C)C4)cc3c2C(C)C)cn2cnnc2c1C (single isomer, unassigned) [Example 114]")
"No"
>>> category_label("Cc1cc2nncn2cc1-c1[nH]c2ccc(C3CCNCC3)cc2c1C(C)C")
"No"
>>> category_label("COCc1nnc2ccc(-c3[nH]c4ccc(C5CCN(CC(=O)N(C)C)CC5)cc4c3C(C)C)cn12")
"No"
>>> category_label("Cc1c(-c2[nH]c3ccc(C4CC(C)N(CCS(C)(=O)=O)C(C)C4)cc3c2C(C)C)cn2cnnc2c1C (single isomer, unassigned) [Example 110]")
"No"

Now for a further molecule.
Q. Check if pIC50 >= 8 (inclusive). Item: CNC(=O)CN1CCC(c2ccc3[nH]c(-c4cn5cnnc5cc4C)c(C(C)C)c3c2)CC1
A. No

---

Tested on: human TLR8 (Homo sapiens, UniProt Q9NR97)
Sequence (Q9NR97 27-1041): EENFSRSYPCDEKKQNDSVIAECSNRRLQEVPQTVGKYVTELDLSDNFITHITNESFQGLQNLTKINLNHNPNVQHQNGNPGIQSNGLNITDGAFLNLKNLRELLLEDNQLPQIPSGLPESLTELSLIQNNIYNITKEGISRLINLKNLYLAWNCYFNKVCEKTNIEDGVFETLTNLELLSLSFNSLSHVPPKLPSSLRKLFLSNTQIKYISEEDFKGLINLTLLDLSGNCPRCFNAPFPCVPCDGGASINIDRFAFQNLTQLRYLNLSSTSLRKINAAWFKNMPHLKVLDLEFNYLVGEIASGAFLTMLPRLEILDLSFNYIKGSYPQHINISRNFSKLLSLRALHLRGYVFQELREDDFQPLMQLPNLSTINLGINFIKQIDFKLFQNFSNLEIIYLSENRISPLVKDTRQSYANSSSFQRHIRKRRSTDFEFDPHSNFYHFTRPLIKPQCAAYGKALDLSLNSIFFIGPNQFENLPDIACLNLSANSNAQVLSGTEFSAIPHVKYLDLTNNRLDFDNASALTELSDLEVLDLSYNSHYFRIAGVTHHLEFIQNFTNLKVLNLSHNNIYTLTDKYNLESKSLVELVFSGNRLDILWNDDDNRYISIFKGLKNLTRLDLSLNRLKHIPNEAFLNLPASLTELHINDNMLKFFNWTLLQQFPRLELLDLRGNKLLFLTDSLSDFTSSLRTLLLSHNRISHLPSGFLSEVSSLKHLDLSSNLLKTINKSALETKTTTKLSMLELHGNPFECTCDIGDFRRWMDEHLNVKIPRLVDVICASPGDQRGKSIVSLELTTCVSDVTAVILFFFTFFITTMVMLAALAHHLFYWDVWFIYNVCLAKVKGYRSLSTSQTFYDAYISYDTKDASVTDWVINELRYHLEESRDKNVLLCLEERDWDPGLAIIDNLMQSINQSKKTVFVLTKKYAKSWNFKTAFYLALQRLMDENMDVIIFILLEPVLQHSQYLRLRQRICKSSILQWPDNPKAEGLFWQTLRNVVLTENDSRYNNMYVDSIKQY
Measurement description: TLR8 inhibition reporter assay (HEK-Blue, SEAP)
Settings: HEK-Blue cells overexpressing human TLR8, R848 15.9 μM, 22 hour incubation
Metric: IC50 (nM)
Numbers only; they are read as nM.

Examples from the recorded data:
>>> observed("Cc1c(-c2[nH]c3ccc(C4CCN(CC(=O)N(C)C)CC4)cc3c2C(C)C)cn2cnnc2c1Cl")
31.1
>>> observed("Cc1cc(-c2[nH]c3ccc(C4CCN(Cc5ncn(C)n5)CC4)cc3c2C(C)C)c(C)n2cnnc12")
4.5
>>> observed("Cc1c(-c2[nH]c3ccc(C4C[C@H]5CC[C@@H](C4)N5CC4(C)COC4)cc3c2C(C)C)cn2cnnc2c1C (single isomer, unassigned) [Example 121]")
47.6
>>> observed("Cc1cc(-c2[nH]c3ccc(C4CCN(Cc5ccn(C)n5)CC4)cc3c2C(C)C)cn2c(C)nnc12")
1.8
>>> observed("Cc1nnc2ccc(-c3[nH]c4ccc(C5CCN(C6COC6)CC5)cc4c3C(C)C)cn12")
16.6

Q. What IC50 value was documented for this compound, Cc1c(-c2[nH]c3ccc(C4CCNCC4)cc3c2C(C)C)ccc2nncn12 ?
A. 133

Q. What IC50 value was documented for this compound, COCCN1CCC(c2ccc3[nH]c(-c4cc(C)c5nncn5c4)c(C(C)C)c3c2)CC1 ?
A. 3.4

Q. What IC50 value was documented for this compound, Cc1c(-c2[nH]c3ccc(C4C[C@H]5CC[C@@H](C4)N5C4COC4)cc3c2C(C)C)cn2cnnc2c1C (single isomer, unassigned) [Example 123] ?
A. 151

---

Tested on: human TLR9 (Homo sapiens, UniProt Q9NR96)
Sequence (Q9NR96 26-1032): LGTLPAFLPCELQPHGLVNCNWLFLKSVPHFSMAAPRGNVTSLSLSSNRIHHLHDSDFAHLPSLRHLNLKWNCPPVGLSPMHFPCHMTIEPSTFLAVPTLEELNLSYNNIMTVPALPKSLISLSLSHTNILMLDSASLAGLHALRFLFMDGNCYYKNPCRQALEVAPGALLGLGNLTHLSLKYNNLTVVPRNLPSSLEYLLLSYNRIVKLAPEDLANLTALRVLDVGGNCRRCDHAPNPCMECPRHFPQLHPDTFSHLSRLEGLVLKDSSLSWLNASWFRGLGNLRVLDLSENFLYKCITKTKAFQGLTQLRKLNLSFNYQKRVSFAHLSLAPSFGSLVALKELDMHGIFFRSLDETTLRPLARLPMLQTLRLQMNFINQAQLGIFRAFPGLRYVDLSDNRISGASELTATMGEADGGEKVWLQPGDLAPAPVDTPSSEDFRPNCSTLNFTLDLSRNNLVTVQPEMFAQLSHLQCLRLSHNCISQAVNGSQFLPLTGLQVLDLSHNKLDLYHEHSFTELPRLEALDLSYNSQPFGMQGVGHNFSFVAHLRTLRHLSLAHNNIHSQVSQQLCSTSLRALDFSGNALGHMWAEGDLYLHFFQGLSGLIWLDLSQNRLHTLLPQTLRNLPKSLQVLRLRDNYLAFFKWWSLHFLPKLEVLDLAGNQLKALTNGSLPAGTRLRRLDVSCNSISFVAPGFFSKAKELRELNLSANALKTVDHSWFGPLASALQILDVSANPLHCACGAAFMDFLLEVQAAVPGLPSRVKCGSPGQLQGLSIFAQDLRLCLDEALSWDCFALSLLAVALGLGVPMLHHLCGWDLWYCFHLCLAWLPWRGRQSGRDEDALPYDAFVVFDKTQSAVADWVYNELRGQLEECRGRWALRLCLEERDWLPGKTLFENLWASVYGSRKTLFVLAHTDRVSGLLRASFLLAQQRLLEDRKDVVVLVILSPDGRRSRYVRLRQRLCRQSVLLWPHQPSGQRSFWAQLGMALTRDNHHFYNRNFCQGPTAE
Measurement description: TLR9 inhibition reporter assay (HEK-Blue, SEAP)
Settings: HEK-Blue cells overexpressing human TLR9, ODN2006 5 nM, 22 hour incubation
pIC50: −log10 of the molar value.
// label = Satisfied if pIC50 is not less than 6, otherwise Not satisfied

Completed entries (count: 4):
>>> category_label("Cc1cc(-c2[nH]c3ccc(C4CCN(CCS(C)(=O)=O)CC4)cc3c2C(C)C)cn2c(C)nnc12 [Example 32]")
"Not satisfied"
>>> category_label("COc1cc(-c2[nH]c3ccc(C4CCN(C5COC5)CC4)cc3c2C(C)C)cn2cnnc12 [Example 86]")
"Not satisfied"
>>> category_label("Cc1cc(-c2[nH]c3ccc(C4CCN(Cc5ncn(C)n5)CC4)cc3c2C(C)C)cn2c(C)nnc12 [Example 33]")
"Not satisfied"
>>> category_label("Cc1cc(-c2[nH]c3ccc(C4CCN(CCO)CC4)cc3c2C(C)C)cn2cnnc12 [Example 28]")
"Satisfied"

Now for a further compound.
Q. Check if pIC50 >= 6 (inclusive). Item: Cc1c(-c2[nH]c3ccc(C4CCN(CC(C)(C)O)CC4)cc3c2C(C)C)cn2cnnc2c1Cl [Example 61]
A. Not satisfied

---

Tested on: human TLR7 (Homo sapiens, UniProt Q9NYK1)
Sequence (Q9NYK1 27-1049): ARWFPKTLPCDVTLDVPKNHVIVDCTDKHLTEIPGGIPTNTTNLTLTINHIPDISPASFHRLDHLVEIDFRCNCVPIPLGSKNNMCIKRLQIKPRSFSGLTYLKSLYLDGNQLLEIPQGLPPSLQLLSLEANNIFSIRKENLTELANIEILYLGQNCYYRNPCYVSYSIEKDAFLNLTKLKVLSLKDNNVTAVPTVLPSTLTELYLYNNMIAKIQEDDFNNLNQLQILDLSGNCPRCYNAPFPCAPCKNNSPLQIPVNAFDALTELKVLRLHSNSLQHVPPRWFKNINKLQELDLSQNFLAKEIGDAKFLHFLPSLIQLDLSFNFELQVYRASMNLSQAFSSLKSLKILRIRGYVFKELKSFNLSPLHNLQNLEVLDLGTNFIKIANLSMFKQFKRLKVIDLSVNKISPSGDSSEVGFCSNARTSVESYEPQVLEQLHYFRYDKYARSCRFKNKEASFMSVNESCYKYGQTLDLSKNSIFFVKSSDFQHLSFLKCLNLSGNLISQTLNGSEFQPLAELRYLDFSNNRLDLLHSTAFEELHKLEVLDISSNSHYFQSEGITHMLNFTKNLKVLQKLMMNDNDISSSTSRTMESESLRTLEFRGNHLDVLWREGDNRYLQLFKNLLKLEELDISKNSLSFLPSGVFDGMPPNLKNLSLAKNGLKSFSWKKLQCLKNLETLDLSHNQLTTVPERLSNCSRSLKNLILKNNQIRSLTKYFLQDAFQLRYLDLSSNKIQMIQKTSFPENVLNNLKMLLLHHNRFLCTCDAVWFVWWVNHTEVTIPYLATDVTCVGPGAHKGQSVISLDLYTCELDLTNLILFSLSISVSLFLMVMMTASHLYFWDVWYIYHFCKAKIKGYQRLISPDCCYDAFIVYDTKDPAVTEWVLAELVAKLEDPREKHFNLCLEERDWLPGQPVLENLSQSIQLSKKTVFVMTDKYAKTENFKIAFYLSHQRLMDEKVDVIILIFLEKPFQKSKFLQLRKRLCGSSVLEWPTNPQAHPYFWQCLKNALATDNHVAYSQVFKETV
Measurement description: TLR7 inhibition reporter assay (HEK-Blue, SEAP)
Settings: HEK-Blue cells overexpressing human TLR7, gardiquimod 7.5 μM, 22 hour incubation
From the text: TLR7/8/9 Inhibition Reporter Assays HEK-Blue™-cells (Invivogen) overexpressing human TLR7, TLR8 or TLR9 receptors were used for screening inhibitors of these receptors using an inducible SEAP (secreted embryonic alkaline phosphatase) reporter gene under the control of the IFN-β minimal promoter fused to five NF-κB and AP-1-binding sites. […]
Metric: IC50 (nM)
Numbers only; they are read as nM.

>>> observed("Cc1cc(-c2[nH]c3ccc(C4CCN(Cc5ncn(C)n5)CC4)cc3c2C(C)C)c(C)n2cnnc12")
104
>>> observed("Cc1cc2nncn2cc1-c1[nH]c2ccc(C3CCN(Cc4ncn(C)n4)CC3)cc2c1C(C)C")
69.6
>>> observed("COCc1nnc2ccc(-c3[nH]c4ccc(C5CCNCC5)cc4c3C(C)C)cn12")
156
>>> observed("Cc1cc(-c2[nH]c3ccc(C4CCN(CC(C)(C)O)CC4)cc3c2C(C)C)c(C)n2cnnc12")
81.7
>>> observed("Cc1cc(-c2[nH]c3ccc(C4CCN(CCCC(F)(F)F)CC4)cc3c2C(C)C)cn2cnnc12")
1.2

Below: the item to evaluate.
Q. What value of IC50 on human TLR7 (Homo sapiens, UniProt Q9NYK1) does Cc1c(-c2[nH]c3ccc(C4CCN(C5COC5)CC4)cc3c2C(C)C)cn2cnnc2c1Cl have?
A. 4.9

---

Tested on: human TLR9 (Homo sapiens, UniProt Q9NR96)
Measurement description: TLR9 inhibition reporter assay (HEK-Blue, SEAP)
Settings: HEK-Blue cells overexpressing human TLR9, ODN2006 5 nM, 22 hour incubation
Catalogue of IC50 values
Numbers only; they are read as µM.

Examples from the recorded data:
>>> observed("CC(C)c1c(-c2ccc3nncn3c2)[nH]c2ccc(C3CCN(C4CCOCC4)CC3)cc12 [Example 64]")
0.677
>>> observed("CNC(=O)CN1CCC(c2ccc3[nH]c(-c4cc(C)c5nncn5c4)c(C(C)C)c3c2)CC1 [Example 16]")
2.52
>>> observed("Cc1c(-c2[nH]c3ccc(C4CCN(C5CC(C)OC(C)C5)CC4)cc3c2C(C)C)cn2cnnc2c1C (stereo not drawn) [Example 92]")
3.27
>>> observed("Cc1c(-c2[nH]c3ccc(C4CCN(CCN5CCOC5=O)CC4)cc3c2C(C)C)cn2cnnc2c1C [Example 56]")
0.196
>>> observed("Cc1cc(-c2[nH]c3ccc(C4CCNCC4)cc3c2C(C)C)cn2cnnc12 [Example 2]")
0.528

Q. What IC50 value was documented for this compound, Cc1c(-c2[nH]c3ccc(C4CCN(CCN5CCCS5(=O)=O)CC4)cc3c2C(C)C)cn2cnnc2c1Cl [Example 53] ?
A. 0.565

Q. What IC50 value was documented for this compound, COc1cc(-c2[nH]c3ccc(C4CCN(CC5(C)COC5)CC4)cc3c2C(C)C)cn2cnnc12 [Example 90] ?
A. 1.5

Q. What IC50 value was documented for this compound, Cc1c(-c2[nH]c3ccc(C4CCN(Cc5ncn(C)n5)CC4)cc3c2C(C)C)ccc2nncn12 [Example 26] ?
A. 12.4

Q. What IC50 value was documented for this compound, Cc1c(-c2[nH]c3ccc(C4CCN(CC#N)CC4)cc3c2C(C)C)cn2cnnc2c1Cl [Example 50] ?
A. 1.09

Q. What IC50 value was documented for this compound, COc1cc(-c2[nH]c3ccc(C4CCN(CC(=O)N(C)C)CC4)cc3c2C(C)C)cn2cnnc12 [Example 54] ?
A. 0.099

Q. What IC50 value was documented for this compound, CC(C)c1c(-c2ccc3nncn3c2)[nH]c2ccc(C3CCN(C(=O)CN(C)C)CC3)cc12 [Example 105] ?
A. 0.188

Q. What IC50 value was documented for this compound, Cc1c(-c2[nH]c3ccc(C4CCN(CC#N)CC4)cc3c2C(C)C)cn2cnnc2c1C [Example 51] ?
A. 1

Q. What IC50 value was documented for this compound, COCCN1CCC(c2ccc3[nH]c(-c4cc(C)c5nncn5c4)c(C(C)C)c3c2)CC1 [Example 27] ?
A. 3.5

Q. What IC50 value was documented for this compound, Cc1nnc2ccc(-c3[nH]c4ccc(C5CCN(C(=O)CN(C)C)CC5)cc4c3C(C)C)cn12 [Example 106] ?
A. 0.382

Ref: patent US11130756B2
